Record type: AC50 measurement. Applies to: Melanocortin receptor 4 (Homo sapiens)
Parameter measured: AC50

* CN[C@@H]1[C@H](O)[C@H](NC)[C@H]2O[C@@]3(O)C(=O)C[C@@H](C)O[C@H]3O[C@@H]2[C@H]1O | > 10 µM
* O=C(O)c1cc(-c2ccc(F)cc2F)ccc1O | > 10 µM
* C[C@@H]1O[C@@H]1P(=O)(O)O | > 10 µM
* COc1c(N2CCNC(C)C2)c(F)cc2c(=O)c(C(=O)O)cn(C3CC3)c12 (centres undefined) | > 10 µM
* CC(C)(N)Cc1ccc(Cl)cc1 | > 30 µM
* COC(=O)C1=C(C)NC(C)=C(C(=O)OCC(C)C)C1c1ccccc1[N+](=O)[O-] (centres undefined) | > 10 µM
* C1COC(NC(C2CC2)C2CC2)=N1 | > 30 µM
* O=C(Nc1ccccc1)OCC(CN1CCCCC1)OC(=O)Nc1ccccc1 (centres undefined) | > 30 µM
* CCNC(C)Cc1cccc(C(F)(F)F)c1 (centres undefined) | > 30 µM

====

So I've got AC50 readings for Sodium-dependent noradrenaline transporter (Homo sapiens, UniProt P23975), take a look.
Parameter measured: AC50 (µM)

• NC(=O)c1cccc2cn(-c3ccc([C@@H]4CCCNC4)cc3)nc12 = 1
• Cc1ccc(O)c2ncccc12 = 6.22
• Oc1c(I)cc(I)c2cccnc12 = 0.874

====

Recorded AC50, one value per entry.
Biological target: D(1A) dopamine receptor (Homo sapiens); note: assay procedure not described here
Sequence (P21728 whole entry): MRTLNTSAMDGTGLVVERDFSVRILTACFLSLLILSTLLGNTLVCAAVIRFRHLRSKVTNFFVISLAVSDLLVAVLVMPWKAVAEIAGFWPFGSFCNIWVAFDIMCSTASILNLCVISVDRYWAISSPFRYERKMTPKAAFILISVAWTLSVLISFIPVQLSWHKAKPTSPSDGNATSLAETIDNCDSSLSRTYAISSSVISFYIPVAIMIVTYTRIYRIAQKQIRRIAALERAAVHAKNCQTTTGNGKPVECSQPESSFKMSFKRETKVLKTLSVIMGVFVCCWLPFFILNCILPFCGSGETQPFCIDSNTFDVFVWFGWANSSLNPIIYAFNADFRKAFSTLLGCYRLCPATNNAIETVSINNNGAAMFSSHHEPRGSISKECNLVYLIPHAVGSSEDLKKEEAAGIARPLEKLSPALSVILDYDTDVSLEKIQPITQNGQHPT
Type: functional, cell-based
Parameter measured: AC50

* CN1C(=O)COc2c(C(=O)NC3CN4CCC3CC4)cc(Cl)cc21 (stereo not given) [AZASETRON] | > 30 µM
* Cc1ccc(C(=O)c2cc(O)c(O)c([N+](=O)[O-])c2)cc1 [TOLCAPONE] | > 10 µM
* CN[C@@H](C)[C@H](O)c1ccccc1 [EPHEDRINE] | > 10 µM
* CN(C)C(=O)OC1N=C(c2ccccc2)c2cc(Cl)ccc2N(C)C1=O (stereo not given) [CAMAZEPAM] | > 10 µM
* Cc1cccc(C)c1OCC(C)N (stereo not given) [MEXILETINE] | > 30 µM
* O=C(Cn1ccnc1[N+](=O)[O-])NCc1ccccc1 [BENZNIDAZOLE] | > 30 µM
* CCN(CC)CCNC(=O)c1cc(Cl)c(N)cc1OC [METOCLOPRAMIDE] | > 10 µM
* CN(C)[C@@H]1C(O)=C(C(N)=O)C(=O)[C@@]2(O)C(O)=C3C(=O)c4c(O)ccc(Cl)c4[C@@H](O)[C@H]3C[C@@H]12 [DEMECLOCYCLINE] | > 10 µM
* CN1CCC2=C(C1)C(c1ccccc1)c1ccccc12 (stereo not given) [PHENINDAMINE] | > 10 µM
* CCOC(=O)[C@H](CCc1ccccc1)N[C@@H](C)C(=O)N1CCC[C@H]1C(=O)O | > 10 µM
* Nc1ccc(/N=N/c2ccccc2)c(N)n1 [PHENAZOPYRIDINE] | > 30 µM
* COc1ccc(C(=O)N2CCN(c3ccc4c(c3)CCC(=O)N4)CC2)cc1OC [VESNARINONE] | > 30 µM
* CCN1CCC[C@H]1CNC(=O)c1cc(S(N)(=O)=O)ccc1OC [LEVOSULPIRIDE] | > 30 µM
* O=C1NCCN1CCN1CCC(c2cn(-c3ccc(F)cc3)c3ccc(Cl)cc23)CC1 [SERTINDOLE] | > 30 µM
* CCCCCOC(=O)Nc1nc(=O)n([C@@H]2O[C@H](C)[C@@H](O)[C@H]2O)cc1F [CAPECITABINE] | > 30 µM
* CO/N=C(\C(=O)N[C@@H]1C(=O)N2C(C(=O)[O-])=C(C[N+]3(C)CCCC3)CS[C@H]12)c1csc(N)n1 | > 300 µM
* CC/C=C\C/C=C\C/C=C\CCCCCCCC(=O)O [LINOLENIC ACID] | > 30 µM
* CC(C)(C(=O)c1cccnc1)c1cccnc1 [METYRAPONE] | > 10 µM
* O=C(C[S+]([O-])C(c1ccccc1)c1ccccc1)NO (stereo not given) | > 30 µM
* CC(C)C(=O)OCC(=O)[C@@]12O[C@H](C3CCCCC3)O[C@@H]1C[C@H]1[C@@H]3CCC4=CC(=O)C=C[C@]4(C)[C@H]3[C@@H](O)C[C@@]12C [CICLESONIDE] | > 10 µM
* CN(CCOc1ccc(NS(C)(=O)=O)cc1)CCc1ccc(NS(C)(=O)=O)cc1 [DOFETILIDE] | > 10 µM
* Cc1c(Cl)cccc1Nc1ccccc1C(=O)O [TOLFENAMIC ACID] | > 30 µM
* Nc1ncnc2c1ncn2[C@@H]1O[C@H](COP(=O)(O)O)[C@@H](O)[C@H]1O [ADENOSINE PHOSPHATE] | > 30 µM
* NC(N)=Nc1nc(CSCCC(N)=NS(N)(=O)=O)cs1 [FAMOTIDINE] | > 10 µM
* Cc1cc(-c2ccccc2)nnc1NCCN1CCOCC1 [MINAPRINE] | > 10 µM
* NC1=NC(=O)C(c2ccccc2)O1 (stereo not given) [PEMOLINE] | > 10 µM
* CN1CCCC(n2nc(Cc3ccc(Cl)cc3)c3ccccc3c2=O)CC1 (stereo not given) [AZELASTINE] | > 30 µM
* COc1c(N2CCNC(C)C2)c(F)cc2c(=O)c(C(=O)O)cn(C3CC3)c12 (stereo not given) [GATIFLOXACIN] | > 30 µM
* OCc1cc([C@@H](O)CNCCCCCCOCCOCc2c(Cl)cccc2Cl)ccc1O [VILANTEROL] | 2.2 µM
* CC(C(=O)O)c1ccc(N2CC=CC2)c(Cl)c1 (stereo not given) [PIRPROFEN] | > 10 µM
* COc1cc2c(cc1OC)C(=O)C(CC1CCN(Cc3ccccc3)CC1)C2 (stereo not given) [DONEPEZIL] | > 10 µM
* C[C@H]1C[C@@H]2[C@H]([C@@H](O)C[C@@]3(C)[C@H]2CC[C@]3(O)C(=O)CO)[C@@]2(C)C=CC(=O)C=C12 [METHYLPREDNISOLONE] | > 30 µM
* CS(=O)(=O)c1ccc([C@@H](O)[C@@H](CO)NC(=O)C(Cl)Cl)cc1 [THIAMPHENICOL] | > 30 µM
* COC(=O)N[C@H](C(=O)N1CCC[C@H]1c1nc(-c2ccc(-c3ccc(-c4c[nH]c([C@@H]5CCCN5C(=O)[C@@H](NC(=O)OC)C(C)C)n4)cc3)cc2)c[nH]1)C(C)C | > 30 µM
* NS(=O)(=O)c1cc(-c2nnn[nH]2)c(NCc2cccs2)cc1Cl [AZOSEMIDE] | > 30 µM
